Procedure Text: qHTS assay to identify small molecule agonists of the estrogen related receptor (ERR) signaling pathway from Tox21 library (AID 1224849); also: % is scaled to controls: 0 for no effect and ±100 for the full control effect; nearly all actives have a fitted effect of over 15% in size
Test Conditions: ERR reporter cell line, ONE-Glo luciferase, 18 h; at 92.4 µM (top of the series) unless noted
Calls of active or inactive are those of the source. Calls follow the shape of the full dose curve.
Readout: activity change, positive = activation

>>> print(df.to_string())
                                    compound                        reported
 0             Cc1ccc(S(=O)(=O)NC2CCCCC2)cc1               -34.7% (inactive)
 1  CCCC1C(CC)=CC(CC)=CN1c1ccccc1 (centres undefined)               -47.2% (inactive)
 2                         OC/C(Br)=C(\Br)CO                1.63% (inactive)
 3  NC(=O)Cn1c(=O)cc(CCN2CCN(c3nccc4sccc34)CC2)c2ccc(F)cc21               -34.9% (inactive)
 4        CN(C)CCOC1=Cc2ccccc2Sc2ccc(Cl)cc21  -11.9% [at 42.5 µM] (inactive)
 5  Cc1nccn1-c1ccc(Sc2cccc(C3(C(N)=O)CCOCC3)c2)cc1                 -58% (inactive)
 6  COc1cc2c(N3CCN(C(=O)Nc4ccc(OC(C)C)cc4)CC3)ncnc2cc1OCCCN1CCCCC1  -32.4% [at 42.5 µM] (inactive)
 7  CCCCC(=O)O[C@]1(C(=O)CO)CC[C@H]2[C@@H]3CCC4=CC(=O)CC[C@]4(C)[C@H]3[C@@H](O)C[C@@]21C  -22.8% [at 42.5 µM] (inactive)
 8  CC(=O)OCC(=O)[C@H]1CC[C@H]2[C@@H]3CCC4=CC(=O)CC[C@]4(C)[C@H]3CC[C@]12C  -35.1% [at 42.5 µM] (inactive)
 9  CC(=O)[C@H]1CC[C@H]2[C@@H]3C[C@H](C)C4=CC(=O)CC[C@]4(C)[C@H]3[C@@H](O)C[C@]12C  -35.5% [at 42.5 µM] (inactive)
10    CC1CC(O)CC(C)(C)C1 (centres undefined)               -6.05% (inactive)
11            COC(OC)(C(=O)c1ccccc1)c1ccccc1               -3.37% (inactive)
12  CN1Cc2cc(C(=O)N3CCC(C4CCNCC4)CC3)ccc2N[C@@H](CC(=O)O)C1=O   7.88% [at 42.5 µM] (inactive)
13                  Nc1ccc(S(=O)(=O)O)c(N)c1                1.48% (inactive)
14                                   C1COCO1                -2.3% (inactive)
15                   NC(=O)Nc1ccc(Cl)c(Cl)c1                4.97% (inactive)
16             O=C(NCCCN1CCOCC1)c1ccc(Cl)cc1   11.6% [at 42.5 µM] (inactive)
17                              CCCCCCCCSCCO               -3.95% (inactive)
18    COC(=O)Nc1nc2ccc(C(=O)c3cccs3)cc2[nH]1  -4.13% [at 42.5 µM] (inactive)
19  COc1ccc(CCC(=O)c2c(O)cc(O[C@@H]3O[C@H](CO)[C@@H](O)[C@H](O)[C@H]3O[C@@H]3O[C@@H](C)[C@H](O)[C@@H](O)[C@H]3O)cc2O)cc1O                1.69% (inactive)
20  CCOC(=O)[C@@H](C)Oc1ccc(Oc2nc3ccc(Cl)cc3o2)cc1               -39.1% (inactive)
21  CO[C@@]12[C@H](COC(N)=O)C3=C(C(=O)C(C)=C(N)C3=O)N1C[C@@H]1N[C@@H]12  -55.2% [at 42.5 µM] (inactive)
22  CCNC(=O)N1CCN(CCCC(c2ccc(F)cc2)c2ccc(F)cc2)CC1  -50.1% [at 42.5 µM] (inactive)
23      CC(C)CCCCCOC(=O)CCCCC(=O)OCCCCCC(C)C               -6.86% (inactive)
24                        CCCCCCCCCCCCCCCCBr     4.62% [at 19 µM] (inactive)
25              Cc1oc(C)c(C(=O)Nc2ccccc2)c1C               -47.2% (inactive)
26                 CC1(C)C(=O)N(Br)C(=O)N1Cl                1.48% (inactive)
27                                    COCCOC               -69.9% (inactive)
28                         O=Cc1c(Cl)cccc1Cl                 3.9% (inactive)
29      Cc1ccc(/C=N/n2c(-c3ccccc3)csc2=S)cc1   4.75% [at 42.5 µM] (inactive)
30  CCN(Cc1cccc(S(=O)(=O)O)c1)c1ccc(C(=C2C=CC(=[N+](CC)Cc3cccc(S(=O)(=O)[O-])c3)C=C2)c2ccccc2)cc1   1.85% [at 42.5 µM] (inactive)
31  COc1ccc([C@@H]2Sc3ccccc3NC(=O)[C@@H]2O)cc1  -18.7% [at 42.5 µM] (inactive)
32                                 O=C1NCCN1                2.98% (inactive)
33  Cc1ccc(Nc2nccc(N(C)c3ccc4c(C)n(C)nc4c3)n2)cc1S(N)(=O)=O  -54.4% [at 42.5 µM] (inactive)

Hello, the source for this data is PubChem BioAssay (Tox21), in case you need it.
